- System: HCT-15 colon
- experimental-protocol: NCI tumour cell line growth inhibition, 48 h
metric: GI50

# lookup: GI50 of CCCCCCC(O)C(O)CCC(O)C1CCC(CCCCC(O)CC2=CC(C)OC2=O)O1 (centres undefined)
19200 nM

Repeat with `COC(=O)CCCNC(=O)C(=O)c1c(O)c(O)c(C(C)C)c2cc(C)c(-c3c(C)cc4c(C(C)C)c(O)c(O)c(C(=O)C(=O)NCCCC(=O)OC)c4c3O)c(O)c12`
587 nM

Param item: `Cc1cc(C)c(O)c(CNCCCNCc2cc(C)cc(C)c2O)c1`
2010 nM

Quick one: Clc1ccc(COC(Cn2ccnc2)c2ccc(Cl)cc2Cl)c(Cl)c1 (centres undefined)
3940 nM

This collection of values is drawn from PubChem BioAssay (NCI).
